So I've got a bunch of compounds here, and I need their log10(IC50) values.
- Tested on: WI38 (diploid human embryo lung)
- method: MTT cytotoxicity, normal cells WI38
- Assay type: cell-based
- condition.summary: Homo sapiens, WI-38, MTT; mean ± SD, triplicate; read-out: WI38 IC50 (normal cell line)
Please be aware that the numbers have been log10-transformed from IC50 in µM.

log10(IC50) reported for this compound CCCCCCCCCCOCC(O)C[P+](c1ccccc1)(c1ccccc1)c1ccccc1 (centres unmarked) : 0.49

The measured log10(IC50) associated with OC(COCC(F)(F)C(F)F)C[P+](c1ccccc1)(c1ccccc1)c1ccccc1 (centres unmarked) reads 1.64

For reference, reported log10(IC50) for COCC(O)C[P+](c1ccccc1)(c1ccccc1)c1ccccc1 (centres unmarked) stands at 1.56

Form: compound = CCCCCCCCCCCCCCCC(=O)OCC(O)C[P+](c1ccccc1)(c1ccccc1)c1ccccc1 (centres unmarked) ; log10(IC50) = 1.21

Lab note: measured log10(IC50) of CCCCCCCCCCCCCCCCCC(=O)OCC(O)C[P+](c1ccccc1)(c1ccccc1)c1ccccc1 (centres unmarked) was 1.70

Noted for OC(CF)C[P+](c1ccccc1)(c1ccccc1)c1ccccc1 (centres unmarked) : its log10(IC50) reads 1.67

Just so you know, measured log10(IC50) for COc1cccc2c1C(=O)c1c(O)c3c(c(O)c1C2=O)C[C@@](O)(C(=O)CO)C[C@@H]3O[C@H]1C[C@H](N)[C@H](O)[C@H](C)O1 [Dox, doxorubicin, reference compound] came out at -0.10

Item: CCOCC(O)C[P+](c1ccccc1)(c1ccccc1)c1ccccc1 (centres unmarked) | log10(IC50): 1.48
